protocol.summary: BET inhibitor-based combinations targeting novel dependencies in MECOM-rearranged (r) AML: AML-191 cell line (AID 2202236; also: nearly all actives have a fitted effect of over 35% in size)
condition.set: AML-191 viability, CellTiter-Glo luminescence, 48 h; series mostly up to 46 µM
Inconclusive results are not listed. Activity calls are given as the source filed them. Calls follow the shape of the dose curve; as a rule, active = well fitted inhibition curve with a large enough effect; inconclusive = small, poorly fitted or top-dose-only effect; inactive = flat fitted curve, though single readings scatter.
Please reply with one of these outcomes: 1 (yes) (active), 0 (no) (inactive)

Q: # outcome recorded in this test, key = c1ccc2c(Cc3c[nH]c4ccccc34)c[nH]c2c1
Ans: 0 (no)

Q: Record request — test call for CCN(CC)CCNc1ccc(C)c2sc3ccccc3c(=O)c12
Ans: 1 (yes)

Q: Please share the test call associated with Clc1ccc(C(Cn2ccnc2)OCc2ccsc2Cl)c(Cl)c1 (centres undefined) .
Ans: 1 (yes)

Q: Outcome? O=S(=O)(c1cccc2cnccc12)N1CCCNCC1
Ans: 0 (no)

Q: Which outcome was assigned to O=c1cc(N2CCOCC2)oc2c(-c3ccc4c(c3)OCCO4)csc12 in this test?
Ans: 1 (yes)

Q: What call does the record list for C#C[C@]1(O)CC[C@H]2[C@@H]3CCc4cc(O)ccc4[C@H]3CC[C@@]21C ?
Ans: 1 (yes)

Q: Identify the outcome logged in this assay for the compound shown: CC(C)(C)OC(=O)Nc1ccc(-c2cc(C(=O)NCCCCCCC(=O)NO)no2)cc1
Ans: 1 (yes)

Q: Recorded call for COc1ccc(C(=O)CC2(O)C(=O)Nc3c(Cl)ccc(Cl)c32)cc1 (centres undefined) ?
Ans: 1 (yes)

Q: I would be grateful if you could indicate the recorded call for O=C(NO)c1cnc(NC2(c3ccccc3)CC2)nc1 .
Ans: 1 (yes)

Q: Look up the recorded call for CCc1cc2c(c(OCC(F)(F)F)c(C(=O)NC3CCN(C(=O)CO)CC3)n2C)c(=O)n1CC(=O)c1ccccc1 in this test.
Ans: 0 (no)

Q: Recorded test outcome, item CCCCCCCCCCCCCCCCOCCCOP(=O)(O)COC(CO)Cn1ccc(N)nc1=O (centres undefined)
Ans: 0 (no)

Q: Given COc1cc2ncnc(Nc3cccc(Cl)c3F)c2cc1OC(=O)N1CCN(C)C[C@H]1C , state the outcome it received in this test.
Ans: 0 (no)

Q: Would you mind telling me which call this test gave O=C([O-])C[O-].[Pt+2] ?
Ans: 0 (no)

Q: Entry CCn1c(=O)c2c(nc(/C=C/c3ccc(OC)c(OC)c3)n2C)n(CC)c1=O : call = ?
Ans: 0 (no)

Q: // param item: NC(=S)N/N=C/c1ncccc1N ; yields the recorded call
Ans: 1 (yes)

Q: Answer briefly: the call reported for COc1ccc(S(=O)(=O)N2CCc3cccc(-c4ccncc4)c32)cc1 in this assay.
Ans: 1 (yes)

Q: Hello, I am checking results. What call was entered for Cc1ccc(C(=O)N(CCCN)[C@@H](c2nc3cc(Cl)ccc3c(=O)n2Cc2ccccc2)C(C)C)cc1 ?
Ans: 1 (yes)

Q: In this assay, the call recorded for CC(C)(O)C1CCC(Nc2ccc3ncc(-c4cccc(C(F)(F)F)c4)n3n2)CC1 (centres undefined) was what?
Ans: 1 (yes)

Q: Any idea what this test logged for Nc1cccc2c1CN([C@H]1CCC(=O)NC1=O)C2=O ?
Ans: 0 (no)

Q: I would be grateful if you could indicate the recorded call for C=C1C(=CC=C2CCC[C@]3(C)[C@@H]([C@H](C)C=C[C@H](C)C(C)C)CC[C@@H]23)C[C@@H](O)C[C@@H]1O .
Ans: 1 (yes)

Q: Would you mind telling me which call this test gave CNCCCOc1cc(F)c(-c2c(Cl)nc3ncnn3c2N[C@@H](C)C(F)(F)F)c(F)c1 ?
Ans: 1 (yes)

Q: Could you kindly confirm the outcome this assay logged for CCCc1cc(C)[nH]c(=O)c1CNC(=O)c1cc(-c2ccc(N3CCN(C(C)C)CC3)nc2)cc2c1cnn2C(C)C ?
Ans: 1 (yes)

Q: Answer briefly: the call reported for C=CCN(/C=C1\C(=O)O[C@@H](COC)[C@]2(C)C1=C(O)C(=O)C1=C2[C@@H](OC(C)=O)C[C@]2(C)C(=O)CC[C@H]12)CC=C in this assay.
Ans: 1 (yes)

Q: Dear colleague, could you share the recorded outcome for CO[C@H]1/C=C/O[C@@]2(C)Oc3c(C)c(O)c4c(O)c(c5c(c4c3C2=O)=NC2(CCN(CC(C)C)CC2)N=5)NC(=O)/C(C)=C/C=C/[C@H](C)[C@H](O)[C@@H](C)[C@@H](O)[C@@H](C)[C@H](OC(C)=O)[C@@H]1C when you have a moment?
Ans: 1 (yes)

Q: Tell me the assay call for Cc1onc(-c2ccc(F)cc2)c1COc1ccc(C(=O)N2CCS(=O)(=O)CC2)cn1 please.
Ans: 0 (no)

Q: Returns: the outcome recorded for C=C1CCC[C@]2(C)C=C3OC(=O)C(C)=C3C[C@@H]12 in this assay.
Ans: 0 (no)

Q: What is the recorded call for this compound in the test? COC(C)(C)CCn1nc(Nc2c(C)cccc2C)c2cnc(Nc3ccc(OCCN4CCCC4)c(F)c3)nc21
Ans: 1 (yes)

Q: Recorded test call requested for Cn1ncc(Cl)c1-c1cc(C(=O)NC(CN)Cc2ccc(F)c(F)c2)oc1Cl (centres undefined)
Ans: 1 (yes)

Q: What did this assay record as the result for CC(C)(C)C(=O)N1N=CC[C@H]1c1ccccc1 ?
Ans: 0 (no)

Q: How did this test come out for Cc1ccc(-n2c(C)cc(-c3nnc4n3CCCCC4)c2C)cc1 ?
Ans: 0 (no)

Q: Test call, this compound: Cc1nnn(C)c1-c1cnc2c3ccc(C(C)(C)O)cc3n([C@H](c3ccccc3)C3CCOCC3)c2c1
Ans: 1 (yes)

Q: Check the results log: what was the call for O=c1ncccn1[C@@H]1O[C@H](CO)[C@@H](O)[C@H]1O ?
Ans: 0 (no)

Q: Test call, this compound: Cc1cc(C(=O)Nc2cc(Nc3ccc4c(/C=C/c5ccccn5)n[nH]c4c3)ccc2F)n(C)n1
Ans: 1 (yes)

Q: Can you look up the reported call for CN1CCCN(C(=O)c2cccc(-c3ccc(/C=C4/C(=O)Nc5ccc(Cl)cc54)o3)c2)CC1 for me?
Ans: 1 (yes)

Q: Recorded test call requested for Cc1cc(-c2ccc(CC(=O)Nc3ccc(-c4cccnc4)cc3)cc2)ccn1
Ans: 1 (yes)

Q: Identify the outcome logged in this assay for the compound shown: Cc1noc(C)c1-c1ccc(-c2cc(C(N)=O)c(NC(N)=O)s2)c(O[C@H]2CCNC2)c1
Ans: 0 (no)

Q: Could you please tell me the result logged for C[C@]12CCCN1CC1=NNC(=O)c3cc(F)cc4[nH]c2c1c34 in this assay?
Ans: 1 (yes)

Q: Assay outcome for CN1C(C(=O)Nc2ccccn2)=C(O)c2sccc2S1(=O)=O : what was it?
Ans: 0 (no)

Q: What call does the record list for COc1cc2ncn(-c3cc(OCc4ccccc4C(F)(F)F)c(C(N)=O)s3)c2cc1OC ?
Ans: 1 (yes)
